Where do the numbers come from? From the supplement of paper PMC8728848.

tgt: GlcNAc(a1-4)Gal(b1-4)GlcNAc(b1-3)Gal(b1-4)Glc
protocol.description: glycan array binding signal (z-score within array); higher = stronger binding
settings: glycan notation: IUPAC condensed, linker removed
This is one part of a sample in which the strongest signals are shown more often than they occur.
property.label: glycan array binding signal (z-score)

1) AT3G44510(29) (Arabidopsis thaliana), F4J341 (protein) MEEHLQGRIKLHDGRYLAYKERGVPKDDAKFTIVLVHGFGSSKDMNFNVSQELVNEIGIYFVLYDRAGYGESDPNPKRSLKSEAYDVQELADGLEIGSRFYLIGISMGSYTVWSCLKHIPQRLAGVAMVAPVVNFRWPSIPKSLMPKDYRREVAKWSVWIANYFPGLLQWLVTQNMFSTTSMLEKNPVYFNDQDIEVLKHIKGFPMLTKEKLRERGVFGTLRSDFLVAFGDWDFDPADLPDPSLSGPEKGSSSVHIWQGYEDKVMPFQLQRCLCRKLPWIRYHEVPKGGHLIVHYDGICDAILKSLLLGEDLPMYKPKAVITEPA	0.232
2) his-Lectin-24A (Drosophila melanogaster) (protein) MFRLSVLVLNLLLVSHEFSAGTAKIEIQPLPALCNGYCFPTLKPVMEYVAIHQDKWNTCTEILANEARKDQIQLNIQLDALKADVSNIKASQLSKDEKLDRMEREQFAMHESLETINRYLTVKLDRTKLQLEAIKNTMDYMKAQMDGYFSAINGVQCLQPGFEKIGDRYFYIEEDVELNWLDAQAKCRRMGGHLASIKTKQEFDAIVEKLDDSKSYFLGVNENTKTGDFVSAASGKSCLYHEWGPGEPHHNNDQERCVSILRKLMHVGNCTYEKRFICQYGI	2.7
